Quick reference: pIC50 of the listed items.
# systemName: BCAT2 (Homo sapiens)
# testSummary: BCAT2 in vitro enzyme inhibition assay (resazurin/diaphorase-coupled fluorescence)
# Assay type: biochemical
# measurementConditions: average where tested multiple times
pIC50: −log10 of the molar value.

Here's what some known entries look like.
{"compound": "CNC(=O)c1ccc2c(c1)nc(-c1ccccn1)n2C1CC(O)CC(NC(=O)c2ncc(C(F)F)s2)C1 (stereo not shown) [Example 294]", "pIC50": "6.00 to 6.30"}
{"compound": "O=C(N[C@H]1CCC[C@@H](n2c(-c3ncccc3F)nc3cnc(-n4cncn4)cc32)C1)c1ncc(C(F)F)s1 [Example 28]", "pIC50": "≥ 7.00"}
{"compound": "O=C(N[C@H]1CCC[C@@H](n2c(-c3ccccc3F)nc3cnc(-c4ncccc4F)cc32)C1)c1ncc(Cl)s1 [Example 169]", "pIC50": "≥ 7.00"}
{"compound": "NC1CC(NC(=O)c2ncc(Cl)s2)CC(n2c(-c3ccccc3F)nc3cnc(-c4nc[nH]n4)cc32)C1 (single isomer, unassigned) [Example 455]", "pIC50": "≥ 7.00"}
{"compound": "CC(C)Cc1nc2cnc(-c3cc4ccccc4o3)cc2n1[C@@H]1CCC[C@H](NC(=O)c2ncc(Cl)s2)C1 [Example 320]", "pIC50": "6.30 to 7.00"}

// query Reported pIC50, compound Cn1cc(-c2cc3nc(-c4ccccn4)n(C4CCCC(NC(=O)c5ccc(Br)s5)C4)c3cn2)cn1 (stereo not shown) [Example 156] : ____
// result < 6.00

// query Reported pIC50, compound CC(=O)N1CC(NC(=O)c2ccc(Br)s2)CC(n2c(-c3ccccn3)nc3ccc(C#N)cc32)C1 (stereo not shown) [Example 289] : ____
// result 6.30 to 7.00

---

# systemName: BCAT2 (Homo sapiens, UniProt O15382)
# testSummary: BCAT2 in vitro enzyme inhibition assay (resazurin/diaphorase-coupled fluorescence)
# Format: biochemical
# measurementConditions: average where tested multiple times
# Procedure: BCAT2 In Vitro Enzyme Inhibition Assay 1.67× hBCAT2 Enzyme Mix: 0.33 μg/mL hBCAT2, 1× Buffer 2.5× Substrate Mix: 460 μM L-leucine, 420 μM α-KetoGlutarate, 10 U/mL glutamate dehydrogenase, 10 mM NAD, 30 μg/mL diaphorase, 20 μm Resazurin BCAT2 enzyme stock solution was diluted to prepare a 1.67× hBCAT2 Enzyme Mix. […] Reactions were quenched after one hour by the addition of 25 μL of 6% SDS and reaction progress was measured via fluorescence read (Ex 540/Em 590). […]
Quick reference: IC50 of the listed items.

Here's what some known entries look like.
{"compound": "O=C(N[C@H]1CCC[C@@H](n2c(-c3ccccc3F)nc3cnc(-c4ncn(C(F)F)n4)cc32)C1)c1ncc(Cl)s1 [Example 378]", "measurementName": "IC50", "observedResult": "≤ 100 nM"}
{"compound": "CC(C)Cc1nc2cnc(-c3nc[nH]n3)cc2n1[C@@H]1C[C@H](NC(=O)c2ccc(Cl)s2)CC(F)(F)C1 (stereo in doubt) [Example 454]", "measurementName": "IC50", "observedResult": "≤ 100 nM"}
{"compound": "O=C(N[C@H]1CCC[C@@H](n2c(Oc3ccccc3F)nc3cnc(-c4nc[nH]n4)cc32)C1)c1ncc(Cl)s1 [Example 192]", "measurementName": "IC50", "observedResult": "≤ 100 nM"}

// query Entry CC(=O)N1CC(NC(=O)c2ccc(Cl)s2)CC(n2c(-c3ccccc3F)nc3cnc(-n4nccn4)cc32)C1 (stereo not drawn) [Example 132] , system BCAT2 (Homo sapiens, UniProt O15382): what IC50 was measured?
// result ≤ 100 nM

// query Entry O=C(N[C@H]1CCC[C@@H](n2c(-c3ncccc3F)nc3cnc(N4CCCC4=O)cc32)C1)c1ncc(C(F)F)s1 [Example 49] , system BCAT2 (Homo sapiens, UniProt O15382): what IC50 was measured?
// result 100 to 500 nM

// query Entry [N-]=[N+]=N[C@@H]1[C@@H](NC(=O)c2ncc(Cl)s2)CCC[C@H]1n1c(-c2ccccc2F)nc2cnc(-c3nc[nH]n3)cc21 [Example 449] , system BCAT2 (Homo sapiens, UniProt O15382): what IC50 was measured?
// result ≤ 100 nM

// query Entry CC(=O)N1CC(NC(=O)c2ccc(Br)s2)CC(n2c(-c3ccccn3)nc3cc(-c4nnco4)ccc32)C1 (stereo not drawn) [Example 282] , system BCAT2 (Homo sapiens, UniProt O15382): what IC50 was measured?
// result 100 to 500 nM

// query Entry O=C(N[C@H]1CCC[C@@H](n2c(-c3ncccc3F)nc3cnc(-c4nc[nH]n4)cc32)C1)c1ccc(Cl)s1 [Example 80] , system BCAT2 (Homo sapiens, UniProt O15382): what IC50 was measured?
// result ≤ 100 nM

---

# systemName: BCAT2 (Homo sapiens, UniProt O15382)
# Sequence (O15382 28-392): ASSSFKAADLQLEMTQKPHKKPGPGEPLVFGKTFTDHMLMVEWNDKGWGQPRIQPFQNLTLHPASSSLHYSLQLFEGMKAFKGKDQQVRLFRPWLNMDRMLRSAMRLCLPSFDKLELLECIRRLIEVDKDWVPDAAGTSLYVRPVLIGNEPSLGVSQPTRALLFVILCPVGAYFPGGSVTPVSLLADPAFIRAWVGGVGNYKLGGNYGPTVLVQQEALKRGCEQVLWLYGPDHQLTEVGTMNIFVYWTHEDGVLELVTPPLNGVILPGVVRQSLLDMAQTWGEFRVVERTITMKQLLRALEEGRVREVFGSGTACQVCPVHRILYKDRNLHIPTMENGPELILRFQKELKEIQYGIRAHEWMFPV
# testSummary: BCAT2 in vitro enzyme inhibition assay (resazurin/diaphorase-coupled fluorescence)
# Assay type: biochemical
# measurementConditions: average where tested multiple times
Quick reference: IC50 of the listed items.

{"molecule": "O=C(N[C@H]1CCC[C@@H](n2c(-c3ncccc3F)nc3cnc(-n4nccn4)cc32)C1)c1ccc(Br)s1", "measurementName": "IC50", "observedResult": "≤ 0.1 µM"}
{"molecule": "CC(C)Cc1nc2cnc(-n3nccn3)cc2n1[C@@H]1CCC[C@H](NC(=O)c2ccc(Cl)s2)C1", "measurementName": "IC50", "observedResult": "≤ 0.1 µM"}
{"molecule": "CO[C@@H]1C[C@@H](NC(=O)c2ncc(Cl)s2)C[C@@H](n2c(CC(C)C)nc3cnc(-c4ncc(C)o4)cc32)C1 (single isomer, unassigned)", "measurementName": "IC50", "observedResult": "> 1 µM"}
{"molecule": "CNC(=O)c1cc2nc(-c3ccccc3F)n(C3CCCC(NC(=O)c4ncc(Cl)s4)C3O)c2cn1 (centres unmarked)", "measurementName": "IC50", "observedResult": "≤ 0.1 µM"}

// query Reported IC50, molecule O=C(N[C@H]1CCC[C@@H](n2c(N3CCCCC3)nc3cnc(-c4nc[nH]n4)cc32)C1)c1ccc(Cl)s1 : ____
// result ≤ 0.1 µM

// query Reported IC50, molecule O=C(NC1CC(O)CC(n2c(-c3ccccc3F)nc3cnc(-n4nccn4)cc32)C1)c1ncc(C(F)F)s1 (centres unmarked) : ____
// result ≤ 0.1 µM

// query Reported IC50, molecule O=C(N[C@H]1CCC[C@@H](n2c(-c3ccccc3F)nc3cnc(-c4nn[nH]n4)cc32)C1)c1ccc(Cl)s1 : ____
// result ≤ 0.1 µM

// query Reported IC50, molecule CC(C)Cc1nc2cnc(-c3nc(Cl)cs3)cc2n1[C@@H]1CCC[C@H](NC(=O)c2ncc(Cl)s2)C1 : ____
// result ≤ 0.1 µM

// query Reported IC50, molecule Cc1noc(C)c1-c1nc2cnc(-n3nccn3)cc2n1[C@@H]1CCC[C@H](NC(=O)c2ncc(C(F)F)s2)C1 : ____
// result 0.5 to 1 µM

// query Reported IC50, molecule Nc1cc2c(cn1)nc(-c1ccccc1F)n2[C@@H]1C[C@@H](O)C[C@H](NC(=O)c2ncc(Cl)s2)C1 : ____
// result ≤ 0.1 µM

---

# systemName: BCAT2 (Homo sapiens)
# testSummary: BCAT2 in vitro cell inhibition using engineered A549 cells (KMV cell assay, 13C6-KMV by LC-MS/MS)
# Type: cell-based
# Parameters: The result was an engineered A549 cell line that expressed endogenous BCAT2; endogenous in cells; host or cells: A549 cells with MUT and BCAT1 knocked out by CRISPR/CAS9; key: A: less than or equal to 0.100 μM; B: greater than 0.100 and less than or equal to 0.500 μM; C: greater than 0.500 and less than or equal to 1.000 μM; d: greater than 1.000 μM; E: no fit
# measurementConditions: average where tested multiple times

{"compound": "CC(C)Cc1nc2cnc(-n3nccn3)cc2n1[C@@H]1COC[C@H](NC(=O)c2ccc(Cl)s2)C1 (single isomer, unassigned)", "BCAT2 Cell Inhibition": "E"}
{"compound": "CNC(=O)c1ccc2c(c1)nc(-c1ccccn1)n2C1CC(O)CC(NC(=O)c2ncc(C(F)F)s2)C1 (stereo not drawn)", "BCAT2 Cell Inhibition": "E"}
{"compound": "CO[C@@H]1C[C@@H](NC(=O)c2ncc(Cl)s2)C[C@@H](n2c(CC(C)C)nc3cnc(-c4ncc(C)o4)cc32)C1 (single isomer, unassigned)", "BCAT2 Cell Inhibition": "E"}

Values compiled from patent US20260159512A1.
